For each of the proteins below, state its Percent cleavage.
Molecular target: AxCT mask27 EpCAM H90.2 L059 version 1
Number in %, nothing else.

Lab note: MMP-1 (protein) FVLTEGNPRWEQTHLTYRIENYTPDLPRADVDHAIEKAFQLWSNVTPLTFTKVSEGQADIMISFVRGDHRDNSPFDGPGGNLAHAFQPGPGIGGDAHFDEDERWTNNFREYNLHRVAAHELGHSLGLSHSTDIGALMYPSYTFSGDVQLAQDDIDGIQAIYGRSQNPVQPIGPQTPKACDSKLTFDAITTIRGEVMFFKDRFYMRTNPFYPEVELNFISVFWPQLPNGLEAAYEFADRDEVRFFKGNKYWAVQGQNVLHGYPKDIYSSFGFPRTVKHIDAALSEENTGKTYFFVANKYWRYDEYKRSMDPGYPKMIAHDFPGIGHKVDAVFMKDGFFYFFHGTRQYKFDPKTKRILTLQKANSWFNCRKN gave Percent cleavage of 0

Lab note: MMP-7 (protein) YSLFPNSPKWTSKVVTYRIVSYTRDLPHITVDRLVSKALNMWGKEIPLHFRKVVWGTADIMIGFARGAHGDSYPFDGPGNTLAHAFAPGTGLGGDAHFDEDERWTDGSSLGINFLYAATHELGHSLGMGHSSDPNAVMYPTYGNGDPQNFKLSQDDIKGIQKLYGKRSNSRKK gave Percent cleavage of 0

Lab note: MMP-12 (protein) GPVWRKHYITYRINNYTPDMNREDVDYAIRKAFQVWSNVTPLKFSKINTGMADILVVFARGAHGDFHAFDGKGGILAHAFGPGSGIGGDAHFDEDEFWTTHSGGTNLFLTAVHEIGHSLGLGHSSDPKAVMFPTYKYVDINTFRLSADDIRGIQSLYGDPKENQRLPNPDNSEPALCDPNLSFDAVTTVGNKIFFFKDRFFWLKVSERPKTSVNLISSLWPTLPSGIEAAYEIEARNQVFLFKDDKYWLISNLRPEPNYPKSIHSFGFPNFVKKIDAAVFNPRFYRTYFFVDNQYWRYDERRQMMDPGYPKLITKNFQGIGPKIDAVFYSKNKYYYFFQGSNQFEYDFLLQRITKTLKSNSWFGC gave Percent cleavage of 71

Lab note: Cathepsin G (protein) IIGGRESRPHSRPYMAYLQIQSPAGQSRCGGFLVREDFVLTAAHCWGSNINVTLGAHNIQRRENTQQHITARRAIRHPQYNQRTIQNDIMLLQLSRRVRRNRNVNPVALPRAQEGLRPGTLCTVAGWGRVSMRRGTDTLREVQLRVQRDRQCLRIFGSYDPRRQICVGDRRERKAAFKGDSGGPLLCNNVAHGIVSYGKSSGVPPEVFTRVSSFLPWIRTTMRS gave Percent cleavage of 6

Lab note: Matriptase (protein) VVGGTDADEGEWPWQVSLHALGQGHICGASLISPNWLVSAAHCYIDDRGFRYSDPTQWTAFLGLHDQSQRSAPGVQERRLKRIISHPFFNDFTFDYDIALLELEKPAEYSSMVRPICLPDASHVFPAGKAIWVTGWGHTQYGGTGALILQKGEIRVINQTTCENLLPQQITPRMMCVGFLSGGVDSCQGDSGGPLSSVEADGRIFQAGVVSWGDGCAQRNKPGVYTRLPLFRDWIKENTGV gave Percent cleavage of 39

Lab note: Neutrophil Elastase (protein) IVGGRRARPHAWPFMVSLQLRGGHFCGATLIAPNFVMSAAHCVANVNVRAVRVVLGAHNLSRREPTRQVFAVQRIFENGYDPVNLLNDIVILQLNGSATINANVQVAQLPAQGRRLGNGVQCLAMGWGLLGRNRGIASVLQELNVTVVTSLCRRSNVCTLVRGRQAGVCFGDSGSPLVCNGLIHGIASFVRGGCASGLYPDAFAPVAQFVNWIDSIIQ gave Percent cleavage of 14
